Cited source for all entries: PubChem BioAssay (NCI)

Assay: NCI Yeast Anticancer Drug Screen. Data for the cln2 rad14 strain (AID 165);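 further: 0% = growth equal to vehicle treated cultures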
Conditions: S. cerevisiae cln2 rad14 strain, at 50.0 µM, active compounds read high
Experimental: Growth inhibition of yeast strains with defined genetic alterations is measured as a screen for potential anti-cancer activity. Selected strains with alterations in DNA damage repair or cell cycle control were exposed to compounds and growth inhibition was measured relative to vehicle treated controls. The strain used in this assay is cln2 rad14
This is part of a sample that, as a whole, favours compounds with a hit. Of some 79,000 tested, about 15% had one in any assay. Activity calls are given as the source filed them. No stated cut-off is given here; in the data, active means growth inhibition above about 70%; inactive means the rest.
Would you kindly list growth inhibition for each of these compounds?

Q: Item COc1cccc(OC)c1C has what recorded growth inhibition?
A: 14.6% (inactive)

Q: Entry CCC1(C)NC(=O)OC1=O (stereo not given) has what growth inhibition?
A: 7.75% (inactive)

Q: Given the entry O=C(O)/C(=C\c1ccccc1[N+](=O)[O-])c1ccc(C(F)(F)F)cc1 , report its measured growth inhibition.
A: 7.1% (inactive)

Q: Quick check: growth inhibition of COc1ccc(-c2c(-c3ccccc3)oc(/N=C/c3ccccc3)c2-c2ccccc2)cc1 ?
A: -2.8% (inactive)

Q: Field request: growth inhibition | item: C(=C(Sc1ccccc1)Sc1ccccc1)C(Sc1ccccc1)c1ccccc1 (stereo not given)
A: 10.8% (inactive)

Q: # query: growth inhibition of entry COc1cc([C@@H]2c3cc4c(cc3[C@@H](Nc3ccc(NC(=O)c5cc(NC(=O)c6cc([N+](=O)[O-])cn6C)cn5C)cc3)[C@H]3COC(=O)[C@H]23)OCO4)cc(OC)c1O
A: 9.2% (inactive)

Q: Consider the compound shown here: O=C(CCl)OCCCc1ccccc1 What is its recorded growth inhibition?
A: -6.3% (inactive)

Q: What does the record list as growth inhibition for Cc1cc(Cl)c(O)c(-c2cc(-c3ccc([N+](=O)[O-])cc3)c3c(N)[nH]c(=O)nc3n2)c1 ?
A: 6.2% (inactive)

Q: # query: growth inhibition of entry COC(=O)N/N=C/c1ccc(NC(C)=O)cc1
A: -75.6% (inactive)

Q: Returns the measured growth inhibition for the input compound. Input: N#Cc1cccc(-c2ccc(-c3ccccc3)o2)c1
A: -7.25% (inactive)

Q: What measured growth inhibition goes with Cc1cccc(C)c1OC(=O)Nc1ccccc1 ?
A: -46.5% (inactive)

Q: Suppose we examine the compound COC(=O)C1CC(=O)N(C)c2sc(C)c(C)c2C1=O (stereo not given) ; what growth inhibition value has been reported?
A: 36.5% (inactive)

Q: May I ask what growth inhibition has been recorded for Nc1nc(SCc2ccccc2)c2ncn(Cc3ccccc3)c2n1 ?
A: 10.5% (inactive)

Q: Could you share which growth inhibition value was measured for COC(=O)C(N)CSc1ccc([N+](=O)[O-])cc1[N+](=O)[O-] (stereo not given) ?
A: 25.1% (inactive)

Q: Fill in: growth inhibition of CC(=O)C1CCC2C3C=C(C)C4=CC(=O)CCC4(C)C3(F)C(=O)CC12C (stereo not given) is ___
A: -13.1% (inactive)

Q: Quick check: growth inhibition of c1cnc2cccnc2c1 ?
A: -6.15% (inactive)

Q: For the compound CCCCN(C(=O)N(CC)CC)[Si](C)(C)C , what growth inhibition is on record?
A: 14% (inactive)

Q: Which growth inhibition is listed for COc1ccc(Cl)cc1NC(=O)Nc1cc(C)ccc1Cl ?
A: -25.2% (inactive)

Q: What does the data say about its growth inhibition? Entry: COc1ccc(/C=C2\N=C(N3CCOCC3)NC2=O)cc1
A: -13.8% (inactive)

Q: Which growth inhibition reading was recorded for the compound C=CCC(O)c1ccc2c(c1)OCO2 (stereo not given) ?
A: -40% (inactive)

Q: # growth inhibition lookup, item CC12CCC(C/C1=N\NC(N)=O)C2(C)C (stereo not given)
A: 2.55% (inactive)

Q: Given the compound COc1cc(C(=O)Nc2c3ccccc3nc3ccccc23)cc(OC)c1OC , what is its reported growth inhibition?
A: -23.6% (inactive)

Q: Reported growth inhibition for COc1c2c(c(OC)c(C(C)=O)c1OC(=O)c1ccccc1)CCO2 : what is it?
A: 11.8% (inactive)

Q: Which growth inhibition value is on record for COC(=O)CCBr ?
A: -18.2% (inactive)

Q: Request the reported growth inhibition associated with CC(=O)OCC1(C)CCC(C)CO1 (stereo not given)
A: 15.2% (inactive)

###

assay: NCI Yeast Anticancer Drug Screen. Data for the sgs1 mgt1 strain (AID 161);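 further: 0% = growth of cultures given vehicle only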; conditions: S. cerevisiae sgs1 mgt1 strain, at 50.0 µM, active compounds read high
About 79,000 compounds went through this panel and 15% of them were active in at least one assay; those are over-represented in the sample as a whole.
propertyMeasured: growth inhibition (%)
Please respond with the number in % and leave the unit unwritten.

Q: Sample COC(=O)C[C@](O)(CCCC(C)(C)O)C(=O)O[C@@H]1C(OC)=C[C@]23CCCN2CCc2cc4c(cc2[C@H]13)OCO4 — what was its growth inhibition?
A: 43.2

Q: # get_value(readout='growth inhibition', item= CCCCCCCNc1nc(N)nc(Cl)n1 )
A: 5.75

Q: GET /values?readout=growth inhibition&item= C=COC(=O)N1CCCCC1
A: 0.5

Q: Please report the recorded growth inhibition for Cn1nc2c(c1-c1cccnc1)CCCc1ccccc1-2 .
A: 13.7

Q: What value of measured growth inhibition is listed for COC(=O)CCc1c(C)[nH]c(C(=O)OC(C)(C)C)c1C ?
A: -10.9

Q: Please report the recorded growth inhibition for CCN(CC)C(=O)NCCCCCCNC(=O)N(CC)CC .
A: -27.8

###

experiment: NCI Yeast Anticancer Drug Screen. Data for the cln2 rad14 strain (AID 165);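 further: 0% = growth equal to vehicle treated cultures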; details: S. cerevisiae cln2 rad14 strain, at 50.0 µM, active compounds read high
This is part of a sample that, as a whole, favours compounds with a hit. Of some 79,000 tested, about 15% had one in any assay.
propertyMeasured: growth inhibition (%)
All answers are understood in %, so give the number only.

Q: # growth inhibition lookup, item CC(C)(C)OC(=O)N1CCCC1=O
A: 22.3

Q: I would be grateful if you could share the reported growth inhibition for CCN(CC)CC(c1ccccc1)C(C)(O)c1ccccc1 (stereo unspecified) .
A: 10.9

Q: Form field: reported growth inhibition of C#CC(CCC)NC(C)(C)C (stereo unspecified)
A: -10.8

Q: Quick one: growth inhibition of CC(C)(C)CC(C)(C)c1ccc(OCCOc2ccc([N+](=O)[O-])cc2N)cc1 ?
A: 4

Q: Name the reported growth inhibition value associated with the compound C(=C/c1ccc2c(c1)OCO2)/c1ccccc1
A: -2.85

Q: Any idea what growth inhibition was measured for CC(C)(C)C(=O)CC(=O)C(C)(C)C ?
A: -57.4

Q: Entry O=c1[nH]cnc2c1ncn2CCCc1ccccc1 has what growth inhibition?
A: -69.6

Q: I am curious: what growth inhibition value has been reported for CCOC(=O)CCCl ?
A: 30.2

Q: Form field: reported growth inhibition of CC(C)NC(=O)c1ccccc1S(=O)c1ccccc1C(=O)NC(C)C
A: 11.3

Q: Value lookup for growth inhibition; key = CC(=O)Oc1ccccc1[C@H]1CC(=O)C[C@H](c2ccccc2OC(C)=O)C12C(=O)c1ccccc1C2=O
A: 30.1

Q: I'd like to know its growth inhibition. The compound in question is O=C(Cn1c(C(=O)c2ccccc2)nc2ccccc21)c1ccccc1
A: -8.95

Q: For COC(=O)C1c2ccc(C)cc2-c2cc(C)ccc21 , what is its reported growth inhibition?
A: 17.4

Q: If you can, please state the reported growth inhibition value of CC12CCC(=O)C=C1CCC1C2C(=O)CC2(C)C1CCC2(O)C(=O)Cn1c(=O)[nH]cc(F)c1=O (stereo unspecified) .
A: 5.65

Q: Quick one: growth inhibition of CCOc1ccc(N=C=S)cc1 ?
A: 22.3

Q: # query: growth inhibition of entry COc1cc(/C=C2\C=Nc3ccccc32)ccc1O
A: 20.3

Q: Quick check: growth inhibition of COc1ccc(CNc2ccccc2C(=O)O)cc1OC ?
A: 31.4

Q: # input compound: COCn1ccnc1C(=O)c1ccccc1 ; wanted: its growth inhibition
A: -27.1

Q: Item CCOC(C)C=O (stereo unspecified) has what recorded growth inhibition?
A: -36

Q: Form field: reported growth inhibition of O=c1c(SCc2ccc(Br)cc2)c(SCc2ccc(Br)cc2)cnn1-c1ccccc1
A: 34

Q: Find the recorded growth inhibition belonging to COc1cc(NC(C)=O)c2[nH]c3c(C)cc(NC(C)=O)c(C)c3c2c1 and report it.
A: -34.5

Q: I would be grateful if you could share the reported growth inhibition for O=C(O)CNC(=O)Cc1ccccc1 .
A: 10.2

Q: Record request: growth inhibition value, item Cc1ccccc1N(CC1CO1)CC1CO1 (stereo unspecified)
A: -19

Q: Any idea what its growth inhibition is? The compound is O=C(O)c1ccccc1C(=O)OC1CC2CCC1C2 (stereo unspecified)
A: 24.2

Q: Quick check: growth inhibition of CC(=O)NNc1nc(C)c(C(=O)/C=C/c2ccc(/C=C/C(=O)c3sc(NNC(C)=O)nc3C)cc2)s1 ?
A: 6.25

Q: Please report the recorded growth inhibition for O=C(O)/C=C\C(=O)Nc1ccccc1Cl .
A: 6.85

Q: Quick one: growth inhibition of COc1ccc(/C=C\c2cccc(Cl)c2)cc1 ?
A: -8.95
